test_system: NAD-dependent protein deacylase sirtuin-6 (Homo sapiens) (UniProt Q8N6T7)
Sequence (Q8N6T7 whole entry, the tested form may be a part): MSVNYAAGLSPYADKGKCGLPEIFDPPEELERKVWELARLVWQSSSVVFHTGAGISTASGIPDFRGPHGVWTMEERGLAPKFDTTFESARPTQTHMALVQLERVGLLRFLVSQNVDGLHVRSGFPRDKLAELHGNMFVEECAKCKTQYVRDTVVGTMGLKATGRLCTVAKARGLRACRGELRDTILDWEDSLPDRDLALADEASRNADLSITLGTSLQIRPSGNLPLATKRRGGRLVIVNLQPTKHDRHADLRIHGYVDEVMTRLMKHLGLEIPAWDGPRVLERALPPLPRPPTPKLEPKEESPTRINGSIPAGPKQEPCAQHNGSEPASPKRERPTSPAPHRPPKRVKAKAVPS
protocol_summary: Substrate activity at human N-terminal His-tagged SIRT6 (1 to 355 residues) expressed in Escherichia coli at 0.5 uM measured after 2 hrs in presence of NAD+ and trypsin by fluorescence assay
*1 amine or outer side, *2 acyl side, *3 side chain or, on linkers, in order; H or OH if unused. Where a SMILES comes first, the peptide text is derived from it. The star is where a group is joined. AMC = Cc1cc(=O)oc2cc(N*)ccc12; Suc = O=C(CCC(=O)[*:2])[*:1]; Decanoyl = CCCCCCCCCC(=O)*
measured_quantity: Activity (RFU)

CC(=O)N[C@@H](Cc1cnc[nH]1)C(=O)N[C@@H](Cc1ccccc1)C(=O)N[C@@H](CO)C(=O)N[C@@H](CCCCNC(=O)CCC(=O)O)C(=O)Nc1ccc2c(C)cc(=O)oc2c1 (Ac-HFSK(Suc)-{AMC}) : 0.41
CC(=O)NCCCC[C@H](NC(=O)[C@H](CO)NC(=O)[C@H](Cc1ccccc1)NC(=O)[C@H](CC(=O)O)NC(C)=O)C(=O)Nc1ccc2c(C)cc(=O)oc2c1 (Ac-DFSK(Ac)-{AMC}) : 0.48
CCCCCCCCCC(=O)NCCCC[C@H](NC(=O)[C@H](CCCCN)NC(=O)[C@@H]1CCCN1C(=O)[C@H](CC(N)=O)NC(C)=O)C(=O)Nc1ccc2c(C)cc(=O)oc2c1 (Ac-NPKK(Decanoyl)-{AMC}) : 0.39
CCCCCCCCCC(=O)NCCCC[C@H](NC(=O)[C@@H](NC(=O)[C@H](CO)NC(=O)[C@H](CO)NC(C)=O)[C@@H](C)CC)C(=O)Nc1ccc2c(C)cc(=O)oc2c1 (Ac-SSIK(Decanoyl)-{AMC}) : 0.4
CCCCCCCCCC(=O)NCCCC[C@H](NC(=O)[C@H](CCCNC(=N)N)NC(=O)[C@H](CC(C)C)NC(=O)[C@H](CC(=O)O)NC(C)=O)C(=O)Nc1ccc2c(C)cc(=O)oc2c1 (Ac-DLRK(Decanoyl)-{AMC}) : 0.51
CC(=O)N[C@@H](CO)C(=O)N[C@@H](CC(C)C)C(=O)NCC(=O)N[C@@H](CCCCNC(=O)CCC(=O)O)C(=O)Nc1ccc2c(C)cc(=O)oc2c1 (Ac-SLGK(Suc)-{AMC}) : 0.38
CCCCCCCCCC(=O)NCCCC[C@H](NC(=O)[C@H](CCC(N)=O)NC(=O)[C@@H](NC(=O)[C@H](CCCCN)NC(C)=O)C(C)C)C(=O)Nc1ccc2c(C)cc(=O)oc2c1 (Ac-KVQK(Decanoyl)-{AMC}) : 0.46
CC(=O)N[C@@H](CC(C)C)C(=O)NCC(=O)N[C@@H](CO)C(=O)N[C@@H](CCCCNC(=O)CCC(=O)O)C(=O)Nc1ccc2c(C)cc(=O)oc2c1 (Ac-LGSK(Suc)-{AMC}) : 0.41

###

test_system: NAD-dependent protein deacetylase sirtuin-3, mitochondrial (Homo sapiens)
protocol_summary: Substrate activity at human N-terminal His-tagged SIRT3 (122 to 391 residues) expressed in Escherichia coli at 0.5 uM measured after 2 hrs in presence of NAD+ and trypsin by fluorescence assay
*1 amine or outer side, *2 acyl side, *3 side chain or, on linkers, in order; H or OH if unused. Where a SMILES comes first, the peptide text is derived from it. The star is where a group is joined. AMC = Cc1cc(=O)oc2cc(N*)ccc12; Suc = O=C(CCC(=O)[*:2])[*:1]; Decanoyl = CCCCCCCCCC(=O)*
measured_quantity: Activity (RFU)

Known results for molecules:
CCCCCCCCCC(=O)NCCCC[C@H](NC(=O)[C@H](CCC(N)=O)NC(=O)[C@@H](NC(=O)[C@H](CCCCN)NC(C)=O)C(C)C)C(=O)Nc1ccc2c(C)cc(=O)oc2c1 (Ac-KVQK(Decanoyl)-{AMC}) : 0.51
CCCCCCCCCC(=O)NCCCC[C@H](NC(=O)[C@H](CCCNC(=N)N)NC(=O)[C@H](C)NC(=O)[C@@H](NC(C)=O)[C@@H](C)O)C(=O)Nc1ccc2c(C)cc(=O)oc2c1 (Ac-TARK(Decanoyl)-{AMC}) : 0.26
CC(=O)NCCCC[C@H](NC(=O)[C@H](CCCNC(=N)N)NC(=O)[C@H](C)NC(=O)[C@@H](NC(C)=O)[C@@H](C)O)C(=O)Nc1ccc2c(C)cc(=O)oc2c1 (Ac-TARK(Ac)-{AMC}) : 0.31

I = CC(=O)NCCCC[C@H](NC(=O)[C@H](CO)NC(=O)[C@H](Cc1ccccc1)NC(=O)[C@H](CC(=O)O)NC(C)=O)C(=O)Nc1ccc2c(C)cc(=O)oc2c1 (Ac-DFSK(Ac)-{AMC})
II = CC[C@H](C)[C@H](NC(C)=O)C(=O)N[C@@H](CCCNC(=N)N)C(=O)N[C@H](C(=O)N[C@@H](CCCCNC(=O)CCC(=O)O)C(=O)Nc1ccc2c(C)cc(=O)oc2c1)[C@@H](C)CC (Ac-IRIK(Suc)-{AMC})
query: Parameter metric = Activity. Return the lower-valued option from I and II . Response format: the label of the selected entry.
result: I

###

test_system: NAD-dependent protein deacetylase sirtuin-1 (Homo sapiens) (UniProt Q96EB6)
Sequence (Q96EB6 whole entry, the tested form may be a part): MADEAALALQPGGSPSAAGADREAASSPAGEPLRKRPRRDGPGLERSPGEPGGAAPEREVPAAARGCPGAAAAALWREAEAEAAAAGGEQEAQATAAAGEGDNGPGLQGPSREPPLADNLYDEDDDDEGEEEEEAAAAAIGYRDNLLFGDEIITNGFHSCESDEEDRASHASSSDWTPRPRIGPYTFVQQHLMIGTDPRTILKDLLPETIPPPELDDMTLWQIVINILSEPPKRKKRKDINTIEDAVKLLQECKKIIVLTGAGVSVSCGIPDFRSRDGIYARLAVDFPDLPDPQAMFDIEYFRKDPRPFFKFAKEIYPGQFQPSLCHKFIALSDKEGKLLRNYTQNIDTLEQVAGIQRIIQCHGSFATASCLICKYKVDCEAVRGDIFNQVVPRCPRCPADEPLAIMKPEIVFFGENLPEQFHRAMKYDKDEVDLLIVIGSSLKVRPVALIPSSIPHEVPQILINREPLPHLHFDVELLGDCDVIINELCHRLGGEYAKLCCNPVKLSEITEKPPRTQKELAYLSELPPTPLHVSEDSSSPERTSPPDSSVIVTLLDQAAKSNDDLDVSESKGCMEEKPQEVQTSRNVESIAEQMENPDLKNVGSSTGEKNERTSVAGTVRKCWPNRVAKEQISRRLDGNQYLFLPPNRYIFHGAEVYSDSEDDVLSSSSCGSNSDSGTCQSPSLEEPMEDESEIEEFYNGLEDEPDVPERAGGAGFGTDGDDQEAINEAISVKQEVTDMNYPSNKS
protocol_summary: Substrate activity at human N-terminal His-tagged SIRT1 (183 to 664 residues) expressed in Escherichia coli at 50 uM measured after 2 hrs in presence of NAD+ and trypsin by fluorescence assay
Where a SMILES comes first, the peptide text is derived from it. The star is where a group is joined. AMC = Cc1cc(=O)oc2cc(N*)ccc12; Decanoyl = CCCCCCCCCC(=O)*
measured_quantity: Activity (RFU)

CCCCCCCCCC(=O)NCCCC[C@H](NC(=O)[C@H](CCCCN)NC(=O)[C@@H]1CCCN1C(=O)[C@H](CC(N)=O)NC(C)=O)C(=O)Nc1ccc2c(C)cc(=O)oc2c1 (Ac-NPKK(Decanoyl)-{AMC}) : 2.87

I = CCCCCCCCCC(=O)NCCCC[C@H](NC(=O)[C@H](CCCNC(=N)N)NC(=O)[C@H](CC(C)C)NC(=O)[C@H](CC(=O)O)NC(C)=O)C(=O)Nc1ccc2c(C)cc(=O)oc2c1 (Ac-DLRK(Decanoyl)-{AMC})
II = CCCCCCCCCC(=O)NCCCC[C@H](NC(=O)[C@@H](NC(=O)[C@H](CO)NC(=O)[C@H](CO)NC(C)=O)[C@@H](C)CC)C(=O)Nc1ccc2c(C)cc(=O)oc2c1 (Ac-SSIK(Decanoyl)-{AMC})
query: Recorded Activity values differ for I and II ; which one is higher? Response format: the label of the selected entry.
result: I
(I: 2.28 RFU, II: 1.34 RFU)

###

test_system: NAD-dependent protein deacetylase sirtuin-7 (Homo sapiens)
Sequence (whole entry): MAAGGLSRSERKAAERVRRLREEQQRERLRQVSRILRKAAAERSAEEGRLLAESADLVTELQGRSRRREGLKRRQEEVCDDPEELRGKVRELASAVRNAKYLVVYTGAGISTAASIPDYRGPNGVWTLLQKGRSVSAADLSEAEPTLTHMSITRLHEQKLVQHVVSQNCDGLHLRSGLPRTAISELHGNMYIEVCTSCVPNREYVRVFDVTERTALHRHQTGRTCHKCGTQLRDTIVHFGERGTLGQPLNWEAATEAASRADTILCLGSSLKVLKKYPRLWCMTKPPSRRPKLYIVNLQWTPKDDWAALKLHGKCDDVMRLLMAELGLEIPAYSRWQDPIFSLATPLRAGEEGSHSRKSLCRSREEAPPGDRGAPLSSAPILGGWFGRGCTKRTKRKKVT
protocol_summary: Substrate activity at human N-terminal His-tagged SIRT7 (68 to 354 residues) expressed in Escherichia coli at 0.5 uM measured after 2 hrs in presence of NAD+ and trypsin by fluorescence assay
*1 amine or outer side, *2 acyl side, *3 side chain or, on linkers, in order; H or OH if unused. Where a SMILES comes first, the peptide text is derived from it. The star is where a group is joined. AMC = Cc1cc(=O)oc2cc(N*)ccc12; Suc = O=C(CCC(=O)[*:2])[*:1]
measured_quantity: Activity (RFU)

CC[C@H](C)[C@H](NC(=O)[C@H](CC(C)C)NC(=O)[C@H](CCCNC(=N)N)NC(C)=O)C(=O)N[C@@H](CCCCNC(C)=O)C(=O)Nc1ccc2c(C)cc(=O)oc2c1 (Ac-RLIK(Ac)-{AMC}) : 0.27
CC(=O)NCCCC[C@H](NC(=O)[C@H](CC(C)C)NC(=O)[C@H](CCCCN)NC(=O)[C@H](Cc1ccc(O)cc1)NC(C)=O)C(=O)Nc1ccc2c(C)cc(=O)oc2c1 (Ac-YKLK(Ac)-{AMC}) : 0.31
CC(=O)N[C@@H](Cc1cnc[nH]1)C(=O)N[C@@H](Cc1ccccc1)C(=O)N[C@@H](CO)C(=O)N[C@@H](CCCCNC(=O)CCC(=O)O)C(=O)Nc1ccc2c(C)cc(=O)oc2c1 (Ac-HFSK(Suc)-{AMC}) : 0.28
CC(=O)NCCCC[C@H](NC(=O)[C@H](CCCNC(=N)N)NC(=O)[C@H](C)NC(=O)[C@@H](NC(C)=O)[C@@H](C)O)C(=O)Nc1ccc2c(C)cc(=O)oc2c1 (Ac-TARK(Ac)-{AMC}) : 0.39
CC[C@H](C)[C@H](NC(C)=O)C(=O)N[C@@H](CCCNC(=N)N)C(=O)N[C@H](C(=O)N[C@@H](CCCCNC(=O)CCC(=O)O)C(=O)Nc1ccc2c(C)cc(=O)oc2c1)[C@@H](C)CC (Ac-IRIK(Suc)-{AMC}) : 0.29
CC(=O)N[C@@H](CO)C(=O)N[C@@H](CC(C)C)C(=O)NCC(=O)N[C@@H](CCCCNC(=O)CCC(=O)O)C(=O)Nc1ccc2c(C)cc(=O)oc2c1 (Ac-SLGK(Suc)-{AMC}) : 0.3

From: ChEMBL document CHEMBL4680222
